Where these numbers come from: ChEMBL document CHEMBL5230098

assay_comment: Oral bioavailability in Sprague-Dawley rat at 4 mg/kg administered as single dose measured for 24 hrs by HPLC/tandem mass spectrometry
Type: ADME, organism-based
measurement_conditions: in vivo
experimental_endpoint: bioavailability (%)

• O=C(c1cc(Cc2n[nH]c(=O)c3ccccc23)ccc1F)N1CCn2nc(C(F)(F)F)nc2C1 = 35.8

====

assay_comment: Aqueous solubility of compound
Type: physicochemical
experimental_endpoint: solubility

• CNCc1ccc(-c2cc3cc(F)cc(C(N)=O)c3o2)cc1.Cl = > 35 mg/mL

====

Reported values: pIC50 for Poly [ADP-ribose] polymerase 1 (Homo sapiens, UniProt P09874), one per item.
pIC50: −log10 of the molar value.
experimental_endpoint: pIC50

• O=C1NCCc2c(OCCCCN3CCCCC3)cccc21 = 6.82
• COc1cccc(C(N)=O)c1 = 4.52
• Cc1cccc2c1CCNC2=O = 6.82
